Examples of compounds with documented half-life follow.
assay-comment: Protease assay with chymotrypsin
Format: in vitro ADME
experimental-context: chymotrypsin (isolated protease) in buffer; 100 mM TRIS–HCl pH 8.0 with 10 mM CaCl2; peptide 100 mM (so in the source); 50 mL of 0.5 mg/mL chymotrypsin stock to 500 mL peptide solution (so in the source); samples at 2, 6, 25, 60 min; HPLC–MS; < 24 = peak not detected at 2 min, 3% detection limit

Would you kindly share the measured half-life for NCCCC[C@H](NC(=O)[C@H](Cc1ccc(O)cc1)NC(=O)C[C@@H](N)Cc1c[nH]c2ccccc12)C(=O)N[C@@H](Cc1ccc(O)cc1)C(=O)N[C@@H](Cc1c[nH]c2ccccc12)C(N)=O ?
< 24 s

Now the compound NCCCC[C@H](NC(=O)[C@H](Cc1ccc(O)cc1)NC(=O)[C@@H](N)Cc1c[nH]c2ccccc12)C(=O)N[C@@H](Cc1ccc(O)cc1)C(=O)N[C@H](CC(N)=O)Cc1c[nH]c2ccccc12
< 24 s

// same read-out, input: NCCCC[C@H](NC(=O)[C@H](Cc1ccc(O)cc1)NC(=O)[C@@H](N)Cc1c[nH]c2ccccc12)C(=O)N[C@H](CC(=O)N[C@@H](Cc1c[nH]c2ccccc12)C(N)=O)Cc1ccc(O)cc1
< 24 s

---

target-system: Chymotrypsin (Bos taurus)
Construct: purchased Sigma-Aldrich
assay-comment: Protease assay with chymotrypsin
Assay type: in vitro ADME
experimental-context: chymotrypsin (isolated protease) in buffer; 100 mM TRIS–HCl pH 8.0 with 10 mM CaCl2; peptide 100 mM (so in the source); 50 mL of 0.5 mg/mL chymotrypsin stock to 500 mL peptide solution (so in the source); samples at 2, 6, 25, 60 min; HPLC–MS; < 24 = peak not detected at 2 min, 3% detection limit
quantity-kind: half-life (min)

A: NCCCC[C@H](NC(=O)C[C@H](Cc1ccc(O)cc1)NC(=O)[C@@H](N)Cc1c[nH]c2ccccc12)C(=O)N[C@@H](Cc1ccc(O)cc1)C(=O)N[C@@H](Cc1c[nH]c2ccccc12)C(N)=O
B: NCCCC[C@@H](CC(=O)N[C@@H](Cc1ccc(O)cc1)C(=O)N[C@@H](Cc1c[nH]c2ccccc12)C(N)=O)NC(=O)[C@H](Cc1ccc(O)cc1)NC(=O)[C@@H](N)Cc1c[nH]c2ccccc12
Pick the one with the larger half-life: A vs B Provide the label of your selected option as the answer.
B
(B: 10.8 min, A: 1.25 min)

---

assay-comment: Protease assay with trypsin
Assay type: in vitro ADME
experimental-context: trypsin (isolated protease) in buffer; 100 mM TRIS–HCl pH 8.0 without CaCl2; peptide 100 mM (so in the source); protease stock 0.5 mg/mL; samples at 2, 6, 25, 60 min; HPLC–MS; < 24 = peak not detected at 2 min, 3% detection limit
quantity-kind: half-life (min)

1: NCCCC[C@H](NC(=O)C[C@H](Cc1ccc(O)cc1)NC(=O)[C@@H](N)Cc1c[nH]c2ccccc12)C(=O)N[C@@H](Cc1ccc(O)cc1)C(=O)N[C@@H](Cc1c[nH]c2ccccc12)C(N)=O
2: NCCCC[C@H](NC(=O)[C@H](Cc1ccc(O)cc1)NC(=O)[C@@H](N)Cc1c[nH]c2ccccc12)C(=O)N[C@H](CC(=O)N[C@@H](Cc1c[nH]c2ccccc12)C(N)=O)Cc1ccc(O)cc1
3: NCCCC[C@H](NC(=O)[C@H](Cc1ccc(O)cc1)NC(=O)C[C@@H](N)Cc1c[nH]c2ccccc12)C(=O)N[C@@H](Cc1ccc(O)cc1)C(=O)N[C@@H](Cc1c[nH]c2ccccc12)C(N)=O
Order these by half-life, descending, and give the full ranking. Answer format: the labels, ordered as requested.
1, 2, 3
(1: 15 min, 2: 6.83 min, 3: 1.83 min)

Every entry's value here was drawn from paper PMC8953856.
